# Assay Summary: ICB984 medulloblastoma cell growth inhibition, synergistic combos for chromothripsis tumors, cisplatin or BGB combos (AID 1671451);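 also: cells exposed for 96 hours before readout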
# Run Conditions: ICB984 medulloblastoma cells, drug combinations, cisplatin combo, at 5 µM, stronger effect = higher value
Could you label it TRUE if measured inhibition is -20% or higher, and FALSE otherwise?

Please tell me: is the compound `C[C@@H](CN1CC(=O)NC(=O)C1)N1CC(=O)NC(=O)C1` at or over -20% in terms of inhibition?
FALSE

Does the compound `O=c1[nH]c(=O)n([C@H]2C[C@H](O)[C@@H](CO)O2)cc1Br` have recorded inhibition that is -20% or more?
TRUE

Check this compound for inhibition at or above -20%: `N=c1ccn2c(n1)O[C@H]1[C@H](O)[C@@H](CO)O[C@H]12`
FALSE

In plain terms: is recorded inhibition at least -20% for COC1C(OC(N)=O)C(O)C(Oc2ccc3c(O)c(NC(=O)c4ccc(O)c(CC=C(C)C)c4)c(=O)oc3c2C)OC1(C)C (centres undefined) ?
FALSE

Hello, I need to know if `O=c1cc[nH]c(=O)[nH]1` has measured inhibition not below -20%. Thanks!
FALSE

Evaluate `Nc1ccc2cc3ccc(N)cc3nc2c1` : inhibition at minimum -20%?
TRUE

State whether the measured inhibition reaches -20%, counting equality as reaching it, for CNC1CCCN(c2c(F)cc3c(=O)c(C(=O)O)cn(C4CC4)c3c2OC)C1 (centres undefined)
FALSE

Confirm if inhibition reported for the compound `CCn1nc(C(=O)O)c(=O)c2cc3c(cc21)OCO3` is -20% or above.
FALSE

Say whether `CN1CCN(c2c(F)cc3c(=O)c(C(=O)O)cn4c3c2OCN4C)CC1` shows inhibition of -20% or more.
TRUE

Check the entry `O=c1c(O)c(-c2ccc(O)c(O)c2)oc2cc(O)ccc12` : does inhibition equal or exceed -20%?
TRUE

Decide: inhibition of `COc1c2ccoc2cc2oc(=O)ccc12` >= -20%?
TRUE

Kindly determine if inhibition recorded for `CCOC(=O)Nc1ccc(NCc2ccc(F)cc2)nc1N` is above or exactly -20%.
TRUE

Hello, I need to know if `O=c1[nH]c(=O)n([C@H]2C[C@H](O)[C@@H](CO)O2)cc1C(F)(F)F` has measured inhibition not below -20%. Thanks!
FALSE

In plain terms: is recorded inhibition at least -20% for `O=C(CCCCCCC(=O)Nc1ccccc1)NO` ?
FALSE

====

# Assay Summary: differential killing of epithelial or mesenchymal cells, primary screen, imaging, PC-3E GFP, TEM4-18 mCherry, co-culture (AID 1345086);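 also: normalised mesenchymal count divided by normalised epithelial count so high means epithelial killing; cells exposed to compound for 72 h before imaging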
# Run Conditions: imaging cell counts, at 1 µM, actives lie on both sides, counts scaled to control wells, 1 = unselective
met if red/green cell ratio (normalised) is below 1. not met if not; exact matches included in not met.

Please check: red/green cell ratio (normalised) for `CC(=O)Oc1ccccc1C(=O)Oc1ccccc1C(=O)O` , strictly under 1 or not?
not met

Is it true that red/green cell ratio (normalised) reported for `NCCSSCCN` is less than 1?
met

Is 1 strictly greater than the molecule's reported red/green cell ratio (normalised)? molecule: `O=C(O)CN(CC(=O)O)Cc1cc2c(-c3ccccc3C(=O)O)c3cc(CN(CC(=O)O)CC(=O)O)c(=O)cc-3oc2cc1O`
met

# TODO verify red/green cell ratio (normalised) < 1 strictly for this molecule: `O=C(O)c1cc(=O)c(O)c2c(O)c(O)ccc2c1`
met

In the record for CC(O)CN(CCN(CC(C)O)CC(C)O)CC(C)O (stereo not given) , is red/green cell ratio (normalised) less than 1?
not met

Decide: red/green cell ratio (normalised) of `CC1=C(/C=C/C(C)=C/C=C/C(C)=C/C=C/C=C(C)/C=C/C=C(C)/C=C/C(=O)[C@]2(C)C[C@@H](O)CC2(C)C)C(C)(C)C[C@H](O)C1` strictly below 1?
not met

Identify whether the molecule `CCCCCCCCCCCC1=C(O)C(=O)C=C(O)C1=O` records red/green cell ratio (normalised) below 1.
met

Is red/green cell ratio (normalised) strictly under 1 for the entry `NC(=O)c1cccnc1` ?
not met

Given `NCCCCC(=O)O` , is recorded red/green cell ratio (normalised) strictly lower than 1?
met

Please determine if `CC(C)=CCC/C(C)=C/CO` is below 1 in terms of red/green cell ratio (normalised).
met

Is it true that red/green cell ratio (normalised) reported for CC(=O)c1c(O)c(C)c(O)c2c1OC1=CC(=O)C(C(C)=O)C(=O)C12C (stereo not given) is less than 1?
met

Decide: red/green cell ratio (normalised) of `CC(=O)N[C@@H](CC(C)C)C(=O)O` strictly below 1?
met

Determine if `[O-][n+]1cccc(CO)c1` shows red/green cell ratio (normalised) strictly lower than 1.
met

Please indicate whether the reported red/green cell ratio (normalised) of `O=c1cc(-c2cc(O)c(O)c(O)c2)oc2cc(O)cc(O)c12` is strictly below 1.
not met

Bench note: check whether `CC1=C(/C=C/C(C)=C/C=C/C(C)=C\C(=O)O)C(C)(C)CCC1` shows red/green cell ratio (normalised) below 1
not met

Answer whether the molecule C#CCCCCCCCCCCCC(O)CC(O)COC(C)=O (stereo not given) has red/green cell ratio (normalised) strictly less than 1
met

Input `CC(C)c1nc(N(C)S(C)(=O)=O)nc(-c2ccc(F)cc2)c1/C=C/[C@@H](O)C[C@@H](O)CC(=O)O` ; condition: red/green cell ratio (normalised) strictly below 1. Does it hold?
met

Answer whether the molecule `CC(=O)Nc1ccc(C(=O)O)cc1` has red/green cell ratio (normalised) strictly less than 1
not met

Lab log: compare recorded red/green cell ratio (normalised) with 1; is it strictly lower for Cc1cc(C(C#N)c2ccc(Cl)cc2)c(Cl)cc1NC(=O)c1cc(I)cc(I)c1O (stereo not given) ?
met

Below 1 on red/green cell ratio (normalised)? Entry `N[C@@H](Cc1cc(I)c(Oc2ccc(O)c(I)c2)c(I)c1)C(=O)O`
not met

Please check: red/green cell ratio (normalised) for CC(=O)NC(Cc1ccccc1)C(=O)O (stereo not given) , strictly under 1 or not?
met

Is red/green cell ratio (normalised) of `O=C(/C=C/C=C/c1ccc2c(c1)OCO2)N1CCCCC1` strictly below 1?
met
